Record form. Attribute: T/C. Fill in for each entry.
# Test system: BDF1 mice, P388 leukemia ip, median survival T/C
# test-description: NCI In Vivo Anticancer Drug Screen. Data for tumor model P388 Leukemia (intraperitoneal) in B6D2F1 (BDF1) mice
# condition-info: endpoint: median survival time; dose: 25.0 mg/kg/injection; schedule: Q01DX009 (ip); vehicle: other; higher = longer survival
Inconclusive results and toxic doses are left out.

q: // query T/C value for entry O=c1cc(-c2cccnc2)oc2c1ccc1ccccc12
a: 91 % of control

q: // next record Cc1cc2nc(N)sc2cc1C
a: 105 % of control

q: // next record CS(=O)(=O)OCCN(CCOS(C)(=O)=O)c1cccc(Cl)c1
a: 95 % of control

q: // next record O=C(O)C(CCO)C(=O)C(F)(F)F (centres undefined)
a: 98 % of control
